Quick reference: IC50 of the listed items.
- assay method text: Inhibition of recombinant full-length wild type Symbiobacterium thermophilum S1PL using RBM13 as fluorogenic substrate incubated for 1 hr
Report the figure in µM without appending any unit label.

Find the measured IC50 of `CCCCCCCCCCCCC/C=C/[C@H](O)[C@H](COP(=O)(O)O)N=[N+]=[N-]` and report it.
16

Give IC50 for `CCCCCCCCCCCCCCC[C@@H](O)[C@H](COP(=O)(O)O)N=[N+]=[N-]`
25

Report measured IC50; entry is `CCCCCCCCCCCCC/C=C/[C@@H](O)[C@@H](COP(=O)(O)O)N=[N+]=[N-]`
11.7

Provide only the value of recorded IC50 for `CCCCCCCCCCCCC/C=C/[C@@H](O)[C@H](COP(=O)(O)O)N=[N+]=[N-]`
12.9

Supply recorded IC50 for `CCCCCCCCCCCCCCC[C@H](O)[C@@H](COP(=O)(O)O)N=[N+]=[N-]` here.
25.7

###

- target system: Sphingosine-1-phosphate lyase 1 (Mus musculus)
- Sequence (Q8R0X7 whole entry): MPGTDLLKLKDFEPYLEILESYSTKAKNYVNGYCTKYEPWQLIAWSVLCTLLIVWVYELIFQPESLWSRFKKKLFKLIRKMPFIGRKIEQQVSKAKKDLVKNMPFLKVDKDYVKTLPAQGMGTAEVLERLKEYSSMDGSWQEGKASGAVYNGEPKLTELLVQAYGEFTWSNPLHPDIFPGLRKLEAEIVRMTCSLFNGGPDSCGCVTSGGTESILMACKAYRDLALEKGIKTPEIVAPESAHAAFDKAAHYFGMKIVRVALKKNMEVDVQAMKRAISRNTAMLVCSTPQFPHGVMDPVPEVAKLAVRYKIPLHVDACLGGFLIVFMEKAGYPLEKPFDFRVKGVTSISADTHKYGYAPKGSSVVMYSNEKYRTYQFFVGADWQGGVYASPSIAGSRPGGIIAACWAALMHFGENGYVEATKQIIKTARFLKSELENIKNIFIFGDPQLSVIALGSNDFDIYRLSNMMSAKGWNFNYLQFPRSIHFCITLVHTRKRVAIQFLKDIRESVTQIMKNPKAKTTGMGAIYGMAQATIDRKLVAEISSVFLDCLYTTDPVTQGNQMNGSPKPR
attribute measured: IC50 (µM)
Give the value in µM but do not write µM after it.

Output measured IC50 for this item: CCCCCCCCc1ccc(CCC(N)(CO)CO)cc1 [FINGOLIMOD]
52.4

###

Sequence of the target: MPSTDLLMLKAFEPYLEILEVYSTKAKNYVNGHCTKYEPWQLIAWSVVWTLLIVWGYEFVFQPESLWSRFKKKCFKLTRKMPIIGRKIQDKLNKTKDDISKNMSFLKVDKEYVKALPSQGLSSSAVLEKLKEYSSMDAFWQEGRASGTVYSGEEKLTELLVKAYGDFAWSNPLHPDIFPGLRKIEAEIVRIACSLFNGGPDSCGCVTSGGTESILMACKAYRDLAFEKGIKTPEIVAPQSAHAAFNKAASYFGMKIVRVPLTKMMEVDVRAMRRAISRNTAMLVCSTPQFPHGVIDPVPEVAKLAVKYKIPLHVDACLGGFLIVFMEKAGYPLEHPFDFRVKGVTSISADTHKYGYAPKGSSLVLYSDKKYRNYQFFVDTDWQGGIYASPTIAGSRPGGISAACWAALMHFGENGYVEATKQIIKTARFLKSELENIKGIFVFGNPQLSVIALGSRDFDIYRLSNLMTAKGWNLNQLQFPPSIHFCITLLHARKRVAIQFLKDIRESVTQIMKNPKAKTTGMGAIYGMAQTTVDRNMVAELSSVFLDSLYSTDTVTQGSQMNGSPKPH
Listed below: Ki values for each entry.
Express the result in µM but write the number alone.

A selection of reference data follows.
INSERT INTO assay_data (smiles_text, data_value) VALUES
  ('CCCCCCCCCCCCCCC[C@@H](O)[C@@H](COP(=O)(O)O)N=[N+]=[N-]', 36.7),
  ('CCCCCCCCCCCCC/C=C/[C@@H](O)[C@@H](COP(=O)(O)O)N=[N+]=[N-]', 17.5);

Now examine the next entry.
Note Ki for the compound shown: `CCCCCCCCCCCCCCC[C@@H](O)[C@H](COP(=O)(O)O)N=[N+]=[N-]`
19
